Taken from PubChem BioAssay (NCI).

Below, each entry is listed with its recorded growth.
- Test system: 786-0 renal
- measurementNotes: NCI-60 one-dose screen, 48 h (100 = growth as untreated, 0 = no growth, -100 = all killed)
- settings: 10 µM unless noted
Compounds without any hit were thinned out: in the full panel of roughly 83,000, 20% have a hit.
Give your result in % as a bare value.

{"columns": ["compound", "growth, %"],
 "data": [
  ["O=C(CS)OCC(COC(=O)CS)(COC(=O)CS)COC(=O)CS", 103],
  ["COc1ccc(/C(=C\\c2cc(OC)c(OC)c(OC)c2)C(=O)Nc2nc3ccc(Cl)cc3s2)cc1", 91.3],
  ["CCC1CCc2nc3sc(C(=O)Nc4cccc(F)c4)c(N)c3cc2C1 (stereo unspecified)", 83.1],
  ["COc1cc(-c2n/c(=C\\c3c(O)[nH]c4cc(Cl)ccc34)cc3c2=Nc2ccccc2-3)cc(OC)c1OC", 34.5]
]}

// fetch growth given entry CCCCOc1ncnc2nc[nH]c12
97.1

// fetch growth given entry Cc1ccccc1CNc1ncnc2[nH]ncc12
97.3

// fetch growth given entry O=C(Oc1c(Cl)c(Cl)c(Cl)c(Cl)c1Cl)C1CCCN1C(=O)OCc1ccccc1 (stereo unspecified)
67.7

---

- Tested on: OVCAR-5 ovarian
- measurementNotes: NCI-60 one-dose screen, 48 h
- settings: 10 µM unless noted
The panel holds about 83,000 compounds, 20% with a hit somewhere; the sample as a whole holds those more often. The source made the active and inactive calls. Rule for the calls: active = growth percent below 10; inactive = the rest.
Allowed answers: true for active, false for inactive

These recorded examples may help you get a feel for the data.
{"columns": ["compound", "classification"],
 "data": [
  ["NC(N)=N/N=C/c1ccccc1", "false"],
  ["Nc1ccc(C(OC(=O)c2cc3ccccc3c(Cc3c(O)c(C(=O)OC(c4ccc(N)cc4)(c4ccc(N)cc4)c4ccc(N)cc4)cc4ccccc34)c2O)(c2ccc(N)cc2)c2ccc(N)cc2)cc1", "false"],
  ["COc1cccc(NC(=O)c2c(-c3ccccc3)c(-c3ccccc3)n[nH]c2=O)c1", "false"]
]}

Kindly provide the recorded test outcome for the following compound: CCN1CCN(Cc2ccc(NC(=O)c3nc4ccc5[nH]ncc5c4c4c3CCCC4)cc2C(F)(F)F)CC1
false

---

Below, each entry is listed with its recorded growth.
- Tested on: M14 melanoma
- measurementNotes: NCI-60 one-dose screen, 48 h (100 = growth as untreated, 0 = no growth, -100 = all killed)
- settings: 10 µM unless noted
About 83,000 compounds went through this panel and 20% of them were active in at least one assay; those are over-represented in the sample as a whole.
Give your result in % as a bare value.

Example entries and their recorded answers appear below.
{"columns": ["compound", "growth (%)"],
 "data": [
  ["Cc1c(O)c(=O)n(-c2ccccc2)n1C", 100],
  ["O=C1c2ccccc2C(=O)c2c1oc1ccc3ccccc3c21", 57.1],
  ["CCCc1cc2c(cc1CN(Cc1cc3c(cc1CCC)OCO3)C(=N)OCC)OCO2", 85.9],
  ["COc1cc(Nc2ccnc3ccc(Br)cc23)cc(OC)c1OC", 14.3],
  ["O=S(=O)(NCC[C@@H]1C[C@H]1c1ccc2ccccc2c1)c1ccc(C(F)(F)F)cc1", 96.2],
  ["CC(C)NCCCCCNc1cc(O)cc2cccnc12", 88.2],
  ["CCOC(=O)c1c(NC(=O)c2ccccc2)sc2c(O)c(CN(CC)CC)ccc12", 14.4],
  ["Nc1nc(N)c2c(n1)NC(c1sc(Cl)nc1Cl)CC(c1ccc3c(c1)OCO3)=N2 (stereo unspecified)", 18.1],
  ["CCCN(CCC)CC(O)COc1ccccc1C(=O)Nc1ccccc1 (stereo unspecified)", 69.3],
  ["CCOc1c(C#N)c2c(N)ncnc2n1C1OC(CO)C(O)C1O (stereo unspecified)", 35]
]}

// fetch growth given entry COc1cc(C2C=C(C)N=C3SC=NN32)cc(OC)c1OC (stereo unspecified)
109

// fetch growth given entry [Ag].[Ag].[NH-]S(=O)(=O)c1ccc(N=Nc2cc(N=Nc3ccc(S([NH-])(=O)=O)cc3)c3c(NC(=O)C(Cl)Cl)cccc3c2OC(=O)C(Cl)Cl)cc1.[c-]1nccs1.[c-]1nccs1
97.4

// fetch growth given entry COC(=O)C1(C)COP(=O)(NC23CC4CC(CC(C4)C2)C3)OC1 (stereo unspecified)
104

// fetch growth given entry COc1ccc(C2CC(c3ccc(Nc4ccnc5cc(Cl)ccc45)cc3)=NN2c2ccccc2)cc1 (stereo unspecified)
99.6

// fetch growth given entry O=C(Nc1ccc2[nH]c3ccccc3c2c1)c1ccccc1Cl
26.2

// fetch growth given entry C#CC[C@@H]1C[C@]2(C)[C@H]3CC=C4[C@H]5[C@@H](C)[C@H](C)CC[C@]5(C(=O)NCCCCCCCCN)CC[C@@]4(C)[C@]3(C)CC[C@H]2C(C)(C)[C@H]1OC(C)=O
29.3

// fetch growth given entry CCOC(=O)NNc1cccc(Cl)c1
104

// fetch growth given entry Cc1cc(NC(=O)C2c3ccccc3C(=O)N(CC(C)C)C2c2cccs2)no1 (stereo unspecified)
1

// fetch growth given entry Nc1nc2c(c3ncccc13)C(c1ccccc1)Cc1ncccc1-2 (stereo unspecified)
44.8

// fetch growth given entry Nc1c(C(=O)Nc2cccc(Cl)c2)sc2ncc(Br)cc12
79.9

// fetch growth given entry Fc1cc(-c2nnc3sc(-c4ccc(Cl)cc4)nn23)c(Cl)cc1Cl
102

---

- System: RXF 393 renal
- measurementNotes: NCI-60 one-dose screen, 48 h
- settings: 10 µM unless noted
Compounds without any hit were thinned out: in the full panel of roughly 83,000, 20% have a hit. The source made the active and inactive calls. How the source made its calls: active means growth percent below 10; inactive means the rest.
Allowed answers: yes for active, no for inactive

{"columns": ["compound", "classification"],
 "data": [
  ["COc1cc2cc(C(=O)Nc3ccccc3)c(N)nc2cc1OC", "yes"],
  ["CCCCN(CCCC)CCCN=c1nc2c(c(N)n1-c1ccccc1)c(=S)n(-c1ccccc1)c(=S)n2-c1ccccc1", "yes"],
  ["CC(C)CC(NC(=O)C(CCCN=C(N)N)NC(=O)OCc1ccccc1)C(=O)NC(CNC(=O)/C=C/c1ccccc1)C(C)C (stereo not given)", "no"],
  ["CC(=O)[C@H]1CC[C@H]2[C@@H]3CC[C@H]4CC=CC[C@]4(C)[C@H]3CC[C@]12C", "no"],
  ["O=C(O)c1ccccc1N=Cc1ccccc1", "no"],
  ["C#CC[C@@H]1C[C@]2(C)[C@H]3CC=C4[C@H]5[C@@H](C)[C@H](C)CC[C@]5(C(=O)NCCCCCCCCN)CC[C@@]4(C)[C@]3(C)CC[C@H]2C(C)(C)[C@H]1OC(C)=O", "no"],
  ["CCCc1cc2c(cc1CN(Cc1cc3c(cc1CCC)OCO3)C(=N)OCC)OCO2", "no"],
  ["Cc1cc(C)c2c(n1)sc1c(Nc3ccc(Cl)cc3Cl)ncnc12", "no"]
]}

Kindly provide the recorded test outcome for the following compound: CCOC(=O)NNc1cccc(Cl)c1
no

Kindly provide the recorded test outcome for the following compound: COc1cc(-c2n/c(=C\c3c(O)[nH]c4cc(Cl)ccc34)cc3c2=Nc2ccccc2-3)cc(OC)c1OC
no

Kindly provide the recorded test outcome for the following compound: O=C(/C=C/c1cccc([N+](=O)[O-])c1)c1ccc(Nc2nc(N3CCCCC3)nc(N3CCCCC3)n2)cc1
no

Kindly provide the recorded test outcome for the following compound: Fc1cc(-c2nnc3sc(-c4ccc(Cl)cc4)nn23)c(Cl)cc1Cl
no

Kindly provide the recorded test outcome for the following compound: Cc1ccc(-c2cnc3sc4ccc(Cl)cc4n23)cc1
no

Kindly provide the recorded test outcome for the following compound: COc1ccccc1/C=N\NC(=S)Nc1ccc(F)cc1
no

Kindly provide the recorded test outcome for the following compound: CC(C)CC(NC(=O)OCC1c2ccccc2-c2ccccc21)C(=O)O (stereo not given)
no

---

- Test system: MCF7 breast
- measurementNotes: NCI-60 one-dose screen, 48 h (100 = growth as untreated, 0 = no growth, -100 = all killed)
- settings: 10 µM unless noted
- Procedure: Growth inhibition of the MCF7 human tumor cell line is measured as a screen for anti-cancer activity. Cells are grown in 96 well plates and exposed to the test compound for 48 hours. Compounds are tested at a single concentration, which is 10^-5 M for most compounds. The reported endpoint is percent growth (GI% or GIPRCNT), where numbers from 0 - 100% represent growth inhibition, and numbers from -100% - 0 represent cell death. For example, a value of 40 represents 60% growth inhibition. […]
About 83,000 compounds went through this panel and 20% of them were active in at least one assay; those are over-represented in the sample as a whole.
Below, each entry is listed with its recorded growth.
Give your result in % as a bare value.

{"columns": ["molecule", "studyTarget", "observed"],
 "data": [
  ["CS(=O)(=O)Nc1cc(-c2cc3ncc(C#N)c(Nc4ccc(Oc5ccccc5)c(Cl)c4)c3s2)cnc1Cl", "MCF7 breast", 26.5],
  ["COc1ccc(/C=C/C(=O)c2ccc(NC(=O)CSc3nnc(-c4ccc(OC)cc4)n3-c3ccccc3)cc2)cc1", "MCF7 breast", 77.1],
  ["CCNS(=O)(=O)c1ccc(C)cc1", "MCF7 breast", 94.9],
  ["ClCc1cccc(CSc2ncnc3c2ncn3Cc2cccc(CCl)c2)c1", "MCF7 breast", 13.3],
  ["Cc1nn(-c2ccc(Cl)cc2)c(=O)n1CCN1CCOCC1", "MCF7 breast", 73.4],
  ["NC(N)=N/N=C\\c1cccc(OCc2ccccc2)c1", "MCF7 breast", 47.2]
]}

// fetch growth given entry Cc1ccc(NC(=O)c2nc(S(C)=O)oc2-c2ccc(F)cc2)cc1Nc1nccc(-c2cccnc2)n1 (configuration not stated)
50.7

// fetch growth given entry COc1ccc(/C(=C\c2cc(OC)c(OC)c(OC)c2)C(=O)N2CCCNCC2)cc1
97.3
